# target-or-test-system: NEDD4 890-928, P46934
# Sequence (P46934 890-928): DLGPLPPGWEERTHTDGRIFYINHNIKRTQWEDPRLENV
measurement-type: selected by phage display

In the examples that follow, each entry is paired with its recorded selected by phage display.
>>> print(df.to_string())
                               binder    experimental_result
0   RNSPPPYGFHLSPEEM [RHBDD1, Q8TEB9]  confidence 2 (active)
1    QSNADALPPDYSVVRG [LYPD5, Q6UWN5]  confidence 2 (active)
2  LANVIAPPPPPYTPNP [PROSER1, Q86XN7]  confidence 2 (active)
3   LEDVSKPPAYAYPATP [TNRC18, O15417]  confidence 3 (active)
4   KPPPYLRNLSSDDANV [UBE2L6, O14933]  confidence 2 (active)

Then there is this binder:
Kindly note the recorded selected by phage display for VSNQPPKYTQPSLPSQ [ATN1, P54259] , which is confidence 3 (active)
